Source listed as PubChem BioAssay (NCI).

Tested on: OVCAR-3 ovarian
Assay: NCI-60 one-dose screen, 48 h
Conditions: 10 µM unless noted
This is part of a sample that, as a whole, favours compounds with a hit. Of some 83,000 tested, about 20% had one in any assay. Calls of active or inactive are those of the source. Rule for the calls: active = growth percent below 10; inactive = the rest.
Valid outcomes are listed here; reply with one: active, inactive

INSERT INTO assay_data (molecule, class_assignment) VALUES
  ('CCN(CC)CCCNc1cc(OC)c(OC)c2cccnc12', 'inactive'),
  ('CCOC(=O)c1nnn(-c2no[n+]([O-])c2-c2ccc(OC)cc2)c1COc1cccc2cccnc12', 'inactive');

Call for entry Oc1ccc(-c2nc3ccc4[nH]ncc4c3c3c2CCCC3)c(F)c1 :
inactive

Call for entry Clc1ccc(-c2cc(-c3ccccc3)nc(N3CCN(CCCNc4ccnc5cc(Cl)ccc45)CC3)n2)cc1 :
active

Call for entry CCCC(=O)NC(c1ccc2c(c1)OCO2)c1cc(Cl)c2cccnc2c1O (stereo not given) :
inactive

Call for entry COC(=O)/C=C1/SC(=NCc2ccccc2)N(CCc2c[nH]c3ccccc23)C1=O :
inactive

----------
Test system: NCI-H226 lung
Assay: NCI-60 one-dose screen, 48 h
Conditions: 10 µM unless noted
The panel holds about 83,000 compounds, 20% with a hit somewhere; the sample as a whole holds those more often. Activity calls are given as the source filed them. Rule for the calls: active = growth percent below 10; inactive = the rest.
Valid outcomes are listed here; reply with one: active, inactive

Use these answered entries as a reference point.
INSERT INTO measurements (molecule, class_assignment) VALUES
  ('CN(C)/C(N)=N/N=C(\c1ccccc1)c1ccccn1', 'inactive'),
  ('CN1C(=O)/C(=C/c2ccc(C(=O)Nc3ncc(Cc4cc(Cl)ccc4Cl)s3)cc2)SC1=S', 'inactive'),
  ('CC1(C)CC(=O)C2=C(C1)C(c1ccc(Cl)cc1)n1ncc(C#N)c1N2 (stereo not given)', 'inactive'),
  ('COc1ccc(C2[C@@H](Cl)C(=O)N2c2cc(OC)c(OC)c(OC)c2)cc1Cl (stereo not given in full)', 'inactive'),
  ('O=C(Oc1ccc2c(c1)sc1nc(-c3ccccc3)[nH]c(=O)c12)C(F)(F)F', 'inactive');

Call for entry N#Cc1c(-c2ccc(Cl)cc2)nc(NN=Cc2ccc[nH]2)nc1N1CCOCC1 :
inactive

Call for entry COc1ccccc1/C=C/C(=O)Nc1ccc(F)cc1 :
inactive

Call for entry CC1(C)N=C(N)N=C(N)N1c1ccc(S(=O)(=O)Nc2nccs2)cc1 :
inactive

Call for entry CC(C)c1ccc2c(c1)CC[C@H]1[C@](C)(C(=O)OCC#CCN3CCCC3)CCC[C@]21C :
inactive

Call for entry O=C(/C=C/c1cccc(Oc2ccccc2)c1)c1ccc(Nc2nc(Nc3ccc(F)cc3)nc(Nc3ccc(Cl)cc3)n2)cc1 :
inactive

----------
System: OVCAR-8 ovarian
Assay: NCI-60 one-dose screen, 48 h (100 = growth as untreated, 0 = no growth, -100 = all killed)
Details: 10 µM unless noted
This is part of a sample that, as a whole, favours compounds with a hit. Of some 83,000 tested, about 20% had one in any assay.
# thresholds on growth define classes: LOW (below 40%), MID (40% to below 90%), HIGH (90% or more)

Use these answered entries as a reference point.
INSERT INTO measurements (compound, class_assignment) VALUES
  ('COc1cc(/C=C/c2cn[nH]c2-c2ccc(C)cc2)cc(OC)c1OC', 'LOW'),
  ('CCSc1ccnc(N)n1', 'HIGH'),
  ('O=S(Nc1ccccc1)c1ccc(Cl)cc1 (stereo not given)', 'HIGH'),
  ('N#Cc1ccc(/C=C/c2cn(-c3ccccc3)nc2-c2cccc([N+](=O)[O-])c2)cc1', 'MID'),
  ('CCOC(=O)CC1CSC(N/N=C/c2ccc(F)c(Br)c2)=N1 (stereo not given)', 'HIGH');

Hi, small favor: classify CCN(CC)C(=O)CC1=C(C)/C(=C/c2[nH]c(-c3ccc[nH]3)cc2OC)N=C1C by its growth when you get a moment.
LOW

Hi, small favor: classify c1ccc(-c2nc3ccccc3[nH]2)c(OCCCCCOc2ccccc2-c2nc3ccccc3[nH]2)c1 by its growth when you get a moment.
MID

Hi, small favor: classify O=C(Nc1ccccc1O)c1ccc(CNc2ccnc(C(F)(F)F)c2)cc1 by its growth when you get a moment.
LOW

Hi, small favor: classify COc1ccc(Oc2ccc(/C=C/C(=O)c3ccc(OC)c(OC)c3)cc2)cc1 by its growth when you get a moment.
MID

Hi, small favor: classify N#CSc1c[nH]c2ccc(/C=C/C(=O)/C=C(O)/C=C/c3ccc4[nH]cc(SC#N)c4c3)cc12 by its growth when you get a moment.
LOW

Hi, small favor: classify CCCn1c(=S)sc2c(NNC(C)=O)nc(C)nc21 by its growth when you get a moment.
HIGH

Hi, small favor: classify O=C1/C(=C/c2cccc(Br)c2)COc2ccc(O)cc21 by its growth when you get a moment.
MID

Hi, small favor: classify C/C(=N\Nc1ccccc1)c1ccc(NC2=CC(=O)c3ccccc3C2=O)cc1 by its growth when you get a moment.
MID

Hi, small favor: classify COc1nc(/C=C\Nc2ccc3c(c2)OCCOCCOCCOCCO3)nc(OC)n1 by its growth when you get a moment.
HIGH

Hi, small favor: classify COc1ccc(/C=C(/C(=O)N2CCNCC2)c2cc(OC)c(OC)c(OC)c2)cc1O by its growth when you get a moment.
MID

Hi, small favor: classify O=C(CCCCCCCC(=O)N1CCCCC1)N1CCCCC1 by its growth when you get a moment.
HIGH

Hi, small favor: classify O=c1oc2ccccc2cc1-c1nn(-c2ccccc2)cc1-c1nn[nH]n1 by its growth when you get a moment.
HIGH

Hi, small favor: classify N#Cc1c(-c2ccc(Cl)cc2)nc(NN=Cc2ccc[nH]2)nc1N1CCOCC1 by its growth when you get a moment.
MID

Hi, small favor: classify O=C(Cc1ccc(/C=C/C(=O)c2ncc[nH]2)cc1)Nc1cc(F)c(F)c(F)c1 by its growth when you get a moment.
MID

Hi, small favor: classify C=C(C)[C@@H]1CC[C@]2(C)[C@H](C=CC3=C4C[C@@](C)(CO)CC[C@]4(C)CC[C@]32C)[C@@]1(C)CCCN by its growth when you get a moment.
LOW

Hi, small favor: classify CCN(CC)CCOc1ccc2ccc(=O)oc2c1 by its growth when you get a moment.
HIGH

Hi, small favor: classify Cc1[nH]c(C(=O)Nc2ccccc2OC2CCN(CCN3CCOCC3)CC2)c(Cl)c1Cl by its growth when you get a moment.
HIGH

Hi, small favor: classify CN(C)CCCn1c2c(c3cnccc3c1=O)C(=O)c1ccccc1-2 by its growth when you get a moment.
LOW

Hi, small favor: classify COc1ccc(Cl)cc1Nc1nc(C(F)(F)F)ccc1C(=O)N/N=C/c1ccc([N+](=O)[O-])cc1 by its growth when you get a moment.
LOW

Hi, small favor: classify COC1C(O)CC(OC2CC(OC3CC(O[C@@H]4C(=O)c5c(cc6cc(OC7CC(OC8CC(O)C(O)C(C)O8)C(O)C(C)O7)c(C)c(O)c6c5O)CC4[C@H](OC)C(=O)C(C)=O)OC(C)C3O)OC(C)C2O)OC1C (stereo not given in full) by its growth when you get a moment.
LOW

Hi, small favor: classify COc1ccc(N=C2NN=C(c3c[nH]c4ccccc34)CS2)cc1OC by its growth when you get a moment.
MID

Hi, small favor: classify CN(C)Cc1cc(C(C)(C)C)cc(Br)c1O by its growth when you get a moment.
HIGH

Hi, small favor: classify Cc1cccc(-c2nc(C(C)C)sc2-c2ccnc(NCCCNS(=O)(=O)c3ccc(Cl)cc3)c2)c1 by its growth when you get a moment.
MID

Hi, small favor: classify CCCCCc1ccc(S(=O)(=O)Nc2cc(-c3csc(NC(C)=O)n3)ccc2N2CCN(C)CC2)cc1 by its growth when you get a moment.
MID

Hi, small favor: classify O=C(NCCCCCCNC(=O)OCc1ccc2c(Cl)cc(Cl)c(O)c2n1)OCc1ccc2c(Cl)cc(Cl)c(O)c2n1 by its growth when you get a moment.
LOW

Hi, small favor: classify CN(C)CCCC1(c2ccc(F)cc2)OCc2cc(-c3csc4ccccc34)ccc21 (stereo not given) by its growth when you get a moment.
LOW

----------
Tested on: HCC-2998 colon
Assay: NCI-60 one-dose screen, 48 h
Conditions: 10 µM unless noted
Compounds without any hit were thinned out: in the full panel of roughly 83,000, 20% have a hit. Active and inactive are the calls of the source. The calls were made as follows: active = growth percent below 10; inactive = the rest.
Valid outcomes are listed here; reply with one: y for active, n for inactive

Use these answered entries as a reference point.
INSERT INTO results (structure, class_assignment) VALUES
  ('CCOC(=O)NCCCC(=O)NCCc1ccccc1', 'n'),
  ('CN1CCN(c2ccc(NC3=CC(=O)c4ncncc4C3=O)cc2)CC1', 'y'),
  ('Cc1nc(N/N=C/c2cn(-c3ccccc3)nc2-c2cc3ccccc3oc2=O)sc1N=Nc1ccccc1', 'n'),
  ('CCN(CC)CCOc1ccc(Nc2ncc3cc(-c4c(Cl)cccc4Cl)c(=O)n(CCOC)c3n2)cc1', 'y');

Call for entry CCOC(=O)CNC1=C(Cl)C(=O)N(Cc2ccc(Cl)cc2)C1=O :
n
